System: MDA-MB-468
Test: phospho-S6 immunofluorescence (DAPI-normalised), per-plate z-score; higher = higher phospho-S6 signal (less pathway suppression)
Settings: co-treatment: GDC0941 450 nM; 24 h
Counter-ions that a name gives are not always drawn.
For each record, write down the corresponding phospho-S6 immunofluorescence (z-score).

Record summary for Cc1ccc(Sc2ccccc2N2CCNCC2)c(C)c1 [Vortioxetine] (compound 10 µM) : reported phospho-S6 immunofluorescence (z-score) = -5.05

Looking up CN1[C@@H]2CC[C@H]1C[C@@H](OC(=O)c1c[nH]c3ccccc13)C2 [Tropisetron (Hydrochloride)] (compound 10 µM) , I found its phospho-S6 immunofluorescence (z-score) recorded as 0.95

// phospho-S6 immunofluorescence (z-score) value for CC#C[C@]1(O)CC[C@H]2[C@@H]3CCC4=CC(=O)CCC4=C3[C@@H](c3ccc(N(C)C)cc3)C[C@@]21C [Mifepristone] (compound 10 µM) : -2.47

Measured phospho-S6 immunofluorescence (z-score), COc1ccc2c(c1OC)C(=O)O[C@@H]2[C@H]1c2c(cc3c(c2OC)OCO3)CCN1C [Noscapine] (compound 10 µM) : 0.49
